Provide the reported pIC50 of each item.
assayed target: human TLR9 (Homo sapiens, UniProt Q9NR96)
Sequence (Q9NR96 26-1032): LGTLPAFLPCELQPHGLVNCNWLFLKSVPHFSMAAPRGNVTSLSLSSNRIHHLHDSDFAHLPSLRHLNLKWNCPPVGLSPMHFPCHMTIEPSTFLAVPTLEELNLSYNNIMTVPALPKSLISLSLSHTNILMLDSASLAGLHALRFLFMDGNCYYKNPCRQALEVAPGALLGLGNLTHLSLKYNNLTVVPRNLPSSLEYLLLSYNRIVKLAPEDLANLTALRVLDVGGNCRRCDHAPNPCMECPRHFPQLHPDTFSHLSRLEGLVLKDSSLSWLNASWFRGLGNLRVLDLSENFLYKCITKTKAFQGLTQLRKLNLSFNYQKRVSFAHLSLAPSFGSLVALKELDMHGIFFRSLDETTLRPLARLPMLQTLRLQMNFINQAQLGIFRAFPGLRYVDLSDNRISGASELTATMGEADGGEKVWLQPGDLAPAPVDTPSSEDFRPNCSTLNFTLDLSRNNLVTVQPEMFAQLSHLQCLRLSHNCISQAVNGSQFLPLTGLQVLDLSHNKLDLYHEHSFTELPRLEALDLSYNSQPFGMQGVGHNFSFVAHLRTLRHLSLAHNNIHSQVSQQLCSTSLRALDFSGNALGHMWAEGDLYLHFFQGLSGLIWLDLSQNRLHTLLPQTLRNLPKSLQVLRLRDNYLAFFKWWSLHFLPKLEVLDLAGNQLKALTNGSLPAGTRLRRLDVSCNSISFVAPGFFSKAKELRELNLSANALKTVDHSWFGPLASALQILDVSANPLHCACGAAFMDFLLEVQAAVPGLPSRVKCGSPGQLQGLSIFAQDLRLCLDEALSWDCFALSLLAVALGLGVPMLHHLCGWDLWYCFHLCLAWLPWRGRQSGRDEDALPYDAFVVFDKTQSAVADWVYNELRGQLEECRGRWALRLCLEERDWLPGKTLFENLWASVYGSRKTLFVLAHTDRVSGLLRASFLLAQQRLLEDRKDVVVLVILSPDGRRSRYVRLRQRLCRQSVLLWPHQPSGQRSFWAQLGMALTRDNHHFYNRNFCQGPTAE
method notes: TLR9 inhibition reporter assay (HEK-Blue cells, SEAP reporter, ODN2006 stimulation)
measurement setup: HEK-Blue cells overexpressing human TLR9, SEAP reporter, ODN2006 5 nM
pIC50: −log10 of the molar value.

Query: Could you tell me which pIC50 is on file for CC(C)c1c(-c2cccn3ncnc23)[nH]c2ccc(C3CCN(CC(=O)N(C)C)CC3)cc12 ?
Response: 4.30 to 6.00

Query: Could you tell me which pIC50 is on file for Cc1n[nH]c2nccc(-c3[nH]c4ccc(C5CCN(Cc6cnc[nH]6)CC5)cc4c3C(C)C)c12 ?
Response: 6.00 to 7.00

Query: Could you tell me which pIC50 is on file for CC(C)c1c(-c2ccnc3[nH]ncc23)[nH]c2ccc(C3CCN(C(=O)c4cscn4)CC3)cc12 ?
Response: 4.30 to 6.00

Query: Could you tell me which pIC50 is on file for CC(C)c1c(-c2ccnc3[nH]ncc23)[nH]c2ccc(C3CCN(CCCN4CCCCC4)CC3)cc12 ?
Response: 6.00 to 7.00

Query: Could you tell me which pIC50 is on file for CNC(=O)CN1CCC(c2ccc3[nH]c(-c4cc(CC(C)C)n5nc(C)cc5c4)c(C(C)C)c3c2)CC1 ?
Response: 4.30 to 6.00

Query: Could you tell me which pIC50 is on file for CC(C)c1c(-c2ccnc3[nH]ncc23)[nH]c2ccc(C3CCN(C(=O)CCn4ccnc4)CC3)cc12 ?
Response: 4.30 to 6.00

Query: Could you tell me which pIC50 is on file for CC(C)c1c(-c2nc3cnccn3n2)[nH]c2ccc(C3CCNCC3)cc12 ?
Response: 4.30 to 6.00

---

Provide the reported IC50 of each item.
assayed target: human TLR8 (Homo sapiens, UniProt Q9NR97)
Sequence (Q9NR97 27-1041): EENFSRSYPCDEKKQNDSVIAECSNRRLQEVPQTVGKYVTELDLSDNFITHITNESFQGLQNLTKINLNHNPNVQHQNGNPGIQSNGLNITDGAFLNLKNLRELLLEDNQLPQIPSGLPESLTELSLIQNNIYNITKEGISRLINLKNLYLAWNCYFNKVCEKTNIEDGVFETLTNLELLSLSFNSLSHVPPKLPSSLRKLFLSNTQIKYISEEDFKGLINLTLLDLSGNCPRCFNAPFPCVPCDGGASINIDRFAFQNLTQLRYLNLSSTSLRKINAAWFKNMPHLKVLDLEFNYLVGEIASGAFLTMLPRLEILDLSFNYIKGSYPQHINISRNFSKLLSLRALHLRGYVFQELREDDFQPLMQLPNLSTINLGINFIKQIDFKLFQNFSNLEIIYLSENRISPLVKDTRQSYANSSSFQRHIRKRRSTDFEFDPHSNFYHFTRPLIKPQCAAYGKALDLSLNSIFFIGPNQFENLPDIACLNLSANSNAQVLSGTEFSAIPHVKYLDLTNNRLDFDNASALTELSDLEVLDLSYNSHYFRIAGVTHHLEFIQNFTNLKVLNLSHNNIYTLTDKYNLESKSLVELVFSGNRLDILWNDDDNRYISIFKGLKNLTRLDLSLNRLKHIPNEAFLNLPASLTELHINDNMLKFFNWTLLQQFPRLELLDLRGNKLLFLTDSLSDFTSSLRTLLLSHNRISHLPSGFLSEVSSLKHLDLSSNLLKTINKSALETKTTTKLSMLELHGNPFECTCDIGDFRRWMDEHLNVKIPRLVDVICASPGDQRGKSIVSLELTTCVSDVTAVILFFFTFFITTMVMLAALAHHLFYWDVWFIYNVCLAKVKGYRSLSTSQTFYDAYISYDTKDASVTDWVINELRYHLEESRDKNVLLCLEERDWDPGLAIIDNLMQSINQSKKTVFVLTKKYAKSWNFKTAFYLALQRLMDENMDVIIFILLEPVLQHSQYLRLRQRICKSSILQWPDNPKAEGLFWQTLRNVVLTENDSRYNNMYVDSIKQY
method notes: TLR8 inhibition reporter assay (HEK-Blue cells, SEAP reporter, R848 stimulation)
measurement setup: HEK-Blue cells overexpressing human TLR8, SEAP reporter, R848 15.9 μM

Query: Could you tell me which IC50 is on file for Cc1cc(-c2[nH]c3ccc(C4CCN(C(=O)CN(C)C)CC4)cc3c2C(C)C)cc2c1oc(=O)n2C ?
Response: 100 to 1000 nM

Query: Could you tell me which IC50 is on file for CC(C)c1c(-c2ccc3[nH]ncc3c2)[nH]c2ccc(C3CCNCC3)cc12 ?
Response: 1000 to 50000 nM

Query: Could you tell me which IC50 is on file for CCc1c(C)c(-c2[nH]c3ccc(C4CCN(CC(C)(C)O)CC4)cc3c2C(C)C)cn2ccnc12 ?
Response: < 100 nM

Query: Could you tell me which IC50 is on file for Cc1cc(-c2[nH]c3ccc(C4CCN(C5COC5)CC4)cc3c2C(C)C)cc2cncn12 ?
Response: 100 to 1000 nM

Query: Could you tell me which IC50 is on file for Cc1cc(-c2[nH]c3ccc(C4CCN(CC(=O)N(C)C)CC4)cc3c2C(C)C)cc2ccnn12 ?
Response: < 100 nM

Query: Could you tell me which IC50 is on file for CCc1c(-c2ccnc3[nH]ncc23)[nH]c2ccc(C3CCN(Cc4cncs4)CC3)cc12 ?
Response: < 100 nM

Query: Could you tell me which IC50 is on file for CNC(=O)CN1CCC(c2ccc3[nH]c(-c4cc(CC(C)C)n5nc(C)cc5c4)c(C(C)C)c3c2)CC1 ?
Response: > 3130 nM

Query: Could you tell me which IC50 is on file for COc1c(C)c(-c2[nH]c3ccc(C4CCN(C(=O)CN(C)C)CC4)cc3c2C(C)C)nn2ncnc12 ?
Response: < 100 nM
